experiment: in vitro; conditions: human, HOS cells
Description: Therapeutic index, ratio of CC50 for human HOS cells to IC50 for CCR5-dependent HIV1 Ba-L infected in human HOS cells
Catalogue of selectivity ratio readings, one per entry.
Quick one: just the number, no unit, thanks!

Known results for compounds:
Cc1nnc(C(C)C)n1[C@@H]1C[C@H]2CC[C@@H](C1)N2CC[C@H](NC(=O)C1CCCC1)c1cccs1 :: 330000
Cc1nnc(C(C)C)n1[C@@H]1C[C@H]2CC[C@@H](C1)N2CC[C@H](NC(=O)C1CCC(F)(F)CC1)c1ccsc1 :: 280000
Cc1nnc(C(C)C)n1[C@@H]1C[C@H]2CC[C@@H](C1)N2CC[C@H](NC(=O)C1CCCCC1)c1cccs1 :: 27000

For Cc1nnc(C(C)C)n1[C@@H]1C[C@H]2CC[C@@H](C1)N2CC[C@H](NC(=O)C1CCC(F)(F)CC1)c1cccs1 the compound record lists selectivity ratio as 100000
